Values were extracted from PubChem BioAssay AID1845212.

system: NCI-H719 tumor spheroids, viability; test: Anticancer human tumor NCI-H719 cell line growth inhibition; settings: curve of first compound; second compound 0.0003 µM; spheroids with HUVEC and MSC;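 also: spheroids exposed to compounds for seven days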
QUANTITY MEASURED: IC50

Reference set (2 entries):
COMPOUND	RESULT
Cc1sc2c(c1C)C(c1ccc(Cl)cc1)=NC(CC(=O)Nc1ccc(O)cc1)c1nnc(C)n1-2 (centres undefined) + COc1cc2c(cc1O)CCNC21CSC2c3c(OC(C)=O)c(C)c4c(c3C(COC1=O)N1C(O)C3Cc5cc(C)c(OC)c(O)c5C(C21)N3C)OCO4	< 9.49 nM
Cc1cc(C)c(CNC(=O)c2cc(-c3ccc(CN4CCOCC4)cc3)cc3c2cnn3C2CCCC2)c(=O)[nH]1 + COc1cc2c(cc1O)CCNC21CSC2c3c(OC(C)=O)c(C)c4c(c3C(COC1=O)N1C(O)C3Cc5cc(C)c(OC)c(O)c5C(C21)N3C)OCO4	< 31.6 nM

get_value(item= O=C(c1cc(Cc2n[nH]c(=O)c3ccccc23)ccc1F)N1CCN(C(=O)C2CC2)CC1 + COc1cc2c(cc1O)CCNC21CSC2c3c(OC(C)=O)c(C)c4c(c3C(COC1=O)N1C(O)C3Cc5cc(C)c(OC)c(O)c5C(C21)N3C)OCO4 , readout=IC50) returns < 94.9 nM

get_value(item= COc1cc(C)[nH]c(=O)c1CN1CCc2c(Cl)cc(C(OC)C3COC3)c(Cl)c2C1=O (centres undefined) + COc1cc2c(cc1O)CCNC21CSC2c3c(OC(C)=O)c(C)c4c(c3C(COC1=O)N1C(O)C3Cc5cc(C)c(OC)c(O)c5C(C21)N3C)OCO4 , readout=IC50) returns < 31.6 nM

---

system: NCI-H719 tumor spheroids, viability; test: Anticancer human tumor NCI-H719 cell line growth inhibition; settings: second compound 94.9 pM; first compound 0.0316 µM; stronger effect = lower value; spheroids with HUVEC and MSC;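 also: spheroids exposed to compounds for seven days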;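 as to viability, T/C: percent viability relative to DMSO vehicle control as 100%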
QUANTITY MEASURED: viability, T/C

COMPOUND	viability, T/C
CC1COCCN1c1cc(-c2ccnn2C)c2ccnc(-c3ccn[nH]3)c2n1 (stereo unspecified) + COc1cc2c(cc1O)CCNC21CSC2c3c(OC(C)=O)c(C)c4c(c3C(COC1=O)N1C(O)C3Cc5cc(C)c(OC)c(O)c5C(C21)N3C)OCO4	13.6%

Consider the additional compound presented here.
get_value(item= COc1ccc([C@@H](O)c2cc(-c3ncnc4cc(N5CCOCC5)ccc34)c(F)cc2Cl)nn1 + COc1cc2c(cc1O)CCNC21CSC2c3c(OC(C)=O)c(C)c4c(c3C(COC1=O)N1C(O)C3Cc5cc(C)c(OC)c(O)c5C(C21)N3C)OCO4 , readout=viability, T/C) returns 49.7%

---

tested on: NCI-H719 tumor spheroids, viability; assay: Anticancer human tumor NCI-H719 cell line growth inhibition; details: second compound 0.00949 µM; first compound 3.16 µM; spheroids with HUVEC and MSC; active = viability on the fitted dose curve at most 10% of control; inactive = the rest;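 also: spheroids exposed to compounds for seven days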
Returns: one label drawn from active, inactive

These recorded examples may help you get a feel for the data.
MOLECULE	LABEL
Cc1cc(C)c(CNC(=O)c2cc(-c3ccc(CN4CCOCC4)cc3)cc3c2cnn3C2CCCC2)c(=O)[nH]1 + CC[C@@]1(O)C(=O)OCc2c1cc1n(c2=O)Cc2cc3c(CN(C)C)c(O)ccc3nc2-1	active
CC1COCCN1c1cc(-c2ccnn2C)c2ccnc(-c3ccn[nH]3)c2n1 (stereo unspecified) + CC[C@@]1(O)C(=O)OCc2c1cc1n(c2=O)Cc2cc3c(CN(C)C)c(O)ccc3nc2-1	active
[2H]c1nc(C)nc([2H])c1-c1cc(NC[C@@H](C)c2cccc3c(C(=O)NC)ccnc23)ncn1 + CC[C@@]1(O)C(=O)OCc2c1cc1n(c2=O)Cc2cc3c(CN(C)C)c(O)ccc3nc2-1	active
COc1ccc([C@@H](O)c2cc(-c3ncnc4cc(N5CCOCC5)ccc34)c(F)cc2Cl)nn1 + CC[C@@]1(O)C(=O)OCc2c1cc1n(c2=O)Cc2cc3c(CN(C)C)c(O)ccc3nc2-1	active
CC(C)n1c(=O)n(C)c2cnc3cc(F)c(-c4ccc(OCCCN5CCCCC5)nc4)cc3c21 + CC[C@@]1(O)C(=O)OCc2c1cc1n(c2=O)Cc2cc3c(CN(C)C)c(O)ccc3nc2-1	inactive

Turning now to a further molecule:
[ask] Outcome logged for COc1cc(C)[nH]c(=O)c1CN1CCc2c(Cl)cc(C(OC)C3COC3)c(Cl)c2C1=O (stereo unspecified) + CC[C@@]1(O)C(=O)OCc2c1cc1n(c2=O)Cc2cc3c(CN(C)C)c(O)ccc3nc2-1 in this assay:
[reply] active

---

Tested on: NCI-H719 tumor spheroids, viability
Assay: Anticancer human tumor NCI-H719 cell line growth inhibition;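 also: spheroids exposed to compounds for seven days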;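 as to viability, T/C: percent viability relative to DMSO vehicle control as 100%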
Conditions: second compound 94.9 pM; first compound 0.316 µM; stronger effect = lower value; spheroids with HUVEC and MSC
Description: Multicellular complex tumor spheroid response to DNA repair inhibitors in combination with DNA-damaging drugs This study explores the anticancer activities of DNA-damaging drugs and inhibitors of DNA damage repair, both as single agents and in combinations. […] Twenty-six patient-derived or established malignant cell lines were evaluated representing sarcoma, melanoma, small cell lung cancer (SCLC), non-small cell lung cancer (NSCLC), as well as bladder, ovarian and pancreatic cancers. […]
// viability, T/C lookup, one value per entry
Form entry: value (%) — number only.

COMPOUND	QUANTITY MEASURED	ENDPOINT UNIT	NUMERIC VALUE
COc1cc(C)[nH]c(=O)c1CN1CCc2c(Cl)cc(C(OC)C3COC3)c(Cl)c2C1=O (stereo unspecified) + COc1cc2c(cc1O)CCNC21CSC2c3c(OC(C)=O)c(C)c4c(c3C(COC1=O)N1C(O)C3Cc5cc(C)c(OC)c(O)c5C(C21)N3C)OCO4	viability, T/C	%	43.9
[2H]c1nc(C)nc([2H])c1-c1cc(NC[C@@H](C)c2cccc3c(C(=O)NC)ccnc23)ncn1 + COc1cc2c(cc1O)CCNC21CSC2c3c(OC(C)=O)c(C)c4c(c3C(COC1=O)N1C(O)C3Cc5cc(C)c(OC)c(O)c5C(C21)N3C)OCO4	viability, T/C	%	38.6

get_value(item= Cc1cc(C)c(CNC(=O)c2cc(-c3ccc(CN4CCOCC4)cc3)cc3c2cnn3C2CCCC2)c(=O)[nH]1 + COc1cc2c(cc1O)CCNC21CSC2c3c(OC(C)=O)c(C)c4c(c3C(COC1=O)N1C(O)C3Cc5cc(C)c(OC)c(O)c5C(C21)N3C)OCO4 , readout=viability, T/C) returns 37.6

get_value(item= CC(C)n1c(=O)n(C)c2cnc3cc(F)c(-c4ccc(OCCCN5CCCCC5)nc4)cc3c21 + COc1cc2c(cc1O)CCNC21CSC2c3c(OC(C)=O)c(C)c4c(c3C(COC1=O)N1C(O)C3Cc5cc(C)c(OC)c(O)c5C(C21)N3C)OCO4 , readout=viability, T/C) returns 45.5

get_value(item= COc1ccc([C@@H](O)c2cc(-c3ncnc4cc(N5CCOCC5)ccc34)c(F)cc2Cl)nn1 + COc1cc2c(cc1O)CCNC21CSC2c3c(OC(C)=O)c(C)c4c(c3C(COC1=O)N1C(O)C3Cc5cc(C)c(OC)c(O)c5C(C21)N3C)OCO4 , readout=viability, T/C) returns 44

get_value(item= CC1COCCN1c1cc(-c2ccnn2C)c2ccnc(-c3ccn[nH]3)c2n1 (stereo unspecified) + COc1cc2c(cc1O)CCNC21CSC2c3c(OC(C)=O)c(C)c4c(c3C(COC1=O)N1C(O)C3Cc5cc(C)c(OC)c(O)c5C(C21)N3C)OCO4 , readout=viability, T/C) returns 7.75

---

system: NCI-H719 tumor spheroids, viability; experiment: Anticancer human tumor NCI-H719 cell line growth inhibition; settings: second compound 100 µM; first compound 0.1 µM; stronger effect = lower value; spheroids with HUVEC and MSC;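 also: spheroids exposed to compounds for seven days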;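 as to viability, T/C: percent viability relative to DMSO vehicle control as 100%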
// viability, T/C lookup, one value per entry
Form entry: value (%) — number only.

Reference set (5 entries):
MOLECULE	NUMERIC VALUE
[2H]c1nc(C)nc([2H])c1-c1cc(NC[C@@H](C)c2cccc3c(C(=O)NC)ccnc23)ncn1 + Cn1nnc2c(C(N)=O)ncn2c1=O	84.2
Cc1cc(C)c(CNC(=O)c2cc(-c3ccc(CN4CCOCC4)cc3)cc3c2cnn3C2CCCC2)c(=O)[nH]1 + Cn1nnc2c(C(N)=O)ncn2c1=O	108
COc1ccc([C@@H](O)c2cc(-c3ncnc4cc(N5CCOCC5)ccc34)c(F)cc2Cl)nn1 + Cn1nnc2c(C(N)=O)ncn2c1=O	81
CC(C)n1c(=O)n(C)c2cnc3cc(F)c(-c4ccc(OCCCN5CCCCC5)nc4)cc3c21 + Cn1nnc2c(C(N)=O)ncn2c1=O	86.8
CC1COCCN1c1cc(-c2ccnn2C)c2ccnc(-c3ccn[nH]3)c2n1 (stereo unspecified) + Cn1nnc2c(C(N)=O)ncn2c1=O	14.7

Consider the additional molecule presented here.
Form: item COc1cc(C)[nH]c(=O)c1CN1CCc2c(Cl)cc(C(OC)C3COC3)c(Cl)c2C1=O (stereo unspecified) + Cn1nnc2c(C(N)=O)ncn2c1=O ; test system NCI-H719 tumor spheroids, viability; viability, T/C: 101
